- Assayed system: recombinant human serotonin receptor 5-HT2A (Homo sapiens)
- Construct: expressed in transfected cells; method B: loaded with Ca2+ dye
- Procedure summary: 5-HT2A antagonist Ca2+ assay in CHO-K1 cells (method A aequorin luminescence / method B FLIPR fluorescence)
- Assay type: cell-based
- Particulars: antagonist mode vs EC80 of reference agonist, method A or B, read-out: 5HT2A IC50
Readout kind: pIC50
Give bare numbers, as −log10 of the molar value.

Example cases with answers are listed next.
COc1ccccc1OC1CCN(CC2CCc3ccccc32)CC1 (centres unmarked)
6.37
O[C@H](COC1CCCCC1)CN1CCC[C@H](Oc2ccc(F)cc2)C1
5.67
N#Cc1ccccc1OC1CCN(CC2CCOc3ccccc32)CC1 (centres unmarked)
7.30
c1ccc2c(c1)CCC2CN1CCC2(CCc3cccnc3O2)CC1 (centres unmarked)
7.40

Next compound, please.
Query: Request the reported pIC50 associated with Fc1ccc(OC2COC3(C2)CN(CC2Cc4cccnc4C2)C3)cc1 (centres unmarked)
Result: 7.00

###

- Assayed system: recombinant human serotonin receptor 5-HT2A (Homo sapiens, UniProt P28223)
- Construct: expressed in transfected cells; method B: loaded with Ca2+ dye
- Sequence (P28223 whole entry): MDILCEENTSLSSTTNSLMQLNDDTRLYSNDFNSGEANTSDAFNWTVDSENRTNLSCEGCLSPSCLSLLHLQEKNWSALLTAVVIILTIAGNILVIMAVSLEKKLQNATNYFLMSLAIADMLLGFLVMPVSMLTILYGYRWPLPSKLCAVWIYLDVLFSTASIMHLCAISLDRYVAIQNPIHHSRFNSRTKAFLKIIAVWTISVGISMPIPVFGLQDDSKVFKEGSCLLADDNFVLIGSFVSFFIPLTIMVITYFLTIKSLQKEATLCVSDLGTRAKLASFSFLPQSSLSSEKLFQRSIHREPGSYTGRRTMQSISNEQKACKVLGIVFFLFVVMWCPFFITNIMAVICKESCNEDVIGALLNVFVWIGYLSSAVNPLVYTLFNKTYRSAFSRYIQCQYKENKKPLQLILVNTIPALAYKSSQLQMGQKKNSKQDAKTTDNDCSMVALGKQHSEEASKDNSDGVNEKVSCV
- Procedure summary: 5-HT2A antagonist Ca2+ assay in CHO-K1 cells (method A aequorin luminescence / method B FLIPR fluorescence)
- Assay type: cell-based
- Particulars: antagonist mode vs EC80 of reference agonist, method A or B, read-out: 5HT2A IC50
pIC50: −log10 of the molar value.
# if value of pIC50 reaches 7, tag True; if it stays below, tag False

Example cases with answers are listed next.
COc1ccc2c(c1)C(CN1CC[C@@H]3C[C@H]1CN3c1ccccc1)CC2 (stereo partly shown)
False
O=C1c2ccccc2CCN1CCN1CC[C@@H](Oc2ccc(F)cc2)C1
False
COc1ccc2c(c1)C(CN1CCC(Oc3cccc(C(N)=O)c3)CC1)CC2 (stereo not shown)
False
Fc1ccc(O[C@@H]2CCCN(CCC3CCOc4ccccc43)C2)cc1 (stereo partly shown)
False
O=C1c2ccccc2CCN1CCN1C[C@@H]2C[C@H](C1)N(c1ccccc1)C2
False

Query: Tell me whether pIC50 is at least 7 here: OC(COc1ccccc1)CN1CCC2(CC1)Cc1ccccc1O2 (stereo not shown)
Result: False

Query: Also check COCc1cccc(OC2CCN(CC3CCOc4ccccc43)CC2)c1 (stereo not shown)
Result: False

###

Hi there, I'd appreciate the recorded inhibition at 10 µM for every entry that follows.
- Assayed system: human sodium channel NaV1.2 (Homo sapiens, UniProt Q99250)
- Sequence (Q99250 whole entry): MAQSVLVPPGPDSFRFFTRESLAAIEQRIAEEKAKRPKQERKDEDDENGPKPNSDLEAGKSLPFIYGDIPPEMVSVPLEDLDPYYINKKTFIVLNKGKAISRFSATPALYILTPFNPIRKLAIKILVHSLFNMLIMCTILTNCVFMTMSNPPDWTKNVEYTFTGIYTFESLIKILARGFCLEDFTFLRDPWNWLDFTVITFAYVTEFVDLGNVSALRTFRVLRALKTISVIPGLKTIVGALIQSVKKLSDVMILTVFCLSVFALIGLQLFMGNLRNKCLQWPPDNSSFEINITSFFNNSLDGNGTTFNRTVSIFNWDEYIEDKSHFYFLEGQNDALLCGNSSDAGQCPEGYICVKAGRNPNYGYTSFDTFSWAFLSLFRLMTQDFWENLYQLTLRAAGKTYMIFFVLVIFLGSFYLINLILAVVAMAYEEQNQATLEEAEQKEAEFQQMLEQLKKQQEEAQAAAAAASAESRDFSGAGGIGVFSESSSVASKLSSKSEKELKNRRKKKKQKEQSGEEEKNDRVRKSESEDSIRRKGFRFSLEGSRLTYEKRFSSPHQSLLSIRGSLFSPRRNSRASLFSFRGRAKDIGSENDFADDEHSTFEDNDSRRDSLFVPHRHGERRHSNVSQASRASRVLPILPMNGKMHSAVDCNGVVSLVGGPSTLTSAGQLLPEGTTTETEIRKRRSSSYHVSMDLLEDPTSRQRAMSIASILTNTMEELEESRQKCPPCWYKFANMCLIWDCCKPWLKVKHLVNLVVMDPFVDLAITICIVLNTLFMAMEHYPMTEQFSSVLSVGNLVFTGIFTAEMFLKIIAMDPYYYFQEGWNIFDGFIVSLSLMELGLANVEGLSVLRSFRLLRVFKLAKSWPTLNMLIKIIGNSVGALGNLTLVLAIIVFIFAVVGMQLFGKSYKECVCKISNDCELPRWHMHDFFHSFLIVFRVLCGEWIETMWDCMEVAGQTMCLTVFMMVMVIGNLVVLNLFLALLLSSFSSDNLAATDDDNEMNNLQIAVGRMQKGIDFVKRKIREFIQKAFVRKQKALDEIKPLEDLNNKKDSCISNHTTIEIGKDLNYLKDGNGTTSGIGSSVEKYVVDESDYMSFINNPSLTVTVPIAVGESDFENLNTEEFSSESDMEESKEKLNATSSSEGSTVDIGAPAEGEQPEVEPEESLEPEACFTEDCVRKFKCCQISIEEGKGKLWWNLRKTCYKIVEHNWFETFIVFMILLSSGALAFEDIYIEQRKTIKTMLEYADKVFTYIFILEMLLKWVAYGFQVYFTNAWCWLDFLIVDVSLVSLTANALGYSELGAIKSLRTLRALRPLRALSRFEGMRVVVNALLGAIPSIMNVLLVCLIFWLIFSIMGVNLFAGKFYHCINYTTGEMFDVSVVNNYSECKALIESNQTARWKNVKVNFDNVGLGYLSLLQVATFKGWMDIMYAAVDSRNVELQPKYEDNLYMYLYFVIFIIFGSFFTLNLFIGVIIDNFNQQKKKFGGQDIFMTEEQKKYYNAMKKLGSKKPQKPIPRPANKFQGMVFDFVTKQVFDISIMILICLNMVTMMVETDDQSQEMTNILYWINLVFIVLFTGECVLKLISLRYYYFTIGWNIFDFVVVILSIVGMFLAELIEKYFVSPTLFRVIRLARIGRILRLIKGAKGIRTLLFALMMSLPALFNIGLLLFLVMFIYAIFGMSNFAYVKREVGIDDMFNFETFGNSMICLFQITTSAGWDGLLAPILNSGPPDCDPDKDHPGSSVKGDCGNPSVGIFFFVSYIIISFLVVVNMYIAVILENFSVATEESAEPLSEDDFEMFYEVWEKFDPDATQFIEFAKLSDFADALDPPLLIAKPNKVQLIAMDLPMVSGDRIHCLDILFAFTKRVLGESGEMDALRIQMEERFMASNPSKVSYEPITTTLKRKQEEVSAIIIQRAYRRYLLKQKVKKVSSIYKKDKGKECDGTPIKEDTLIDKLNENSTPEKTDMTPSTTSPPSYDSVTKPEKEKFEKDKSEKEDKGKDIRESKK
- Procedure summary: NaV1.2 inhibition, automated patch-clamp (Q-Patch HTX), slow inactivated state (state C)
- Assay type: cell-based
- Particulars: 10 μM compound; hNaV1.2 CHO cells, slow inactivated state; read-out: NaV1.2 (% inh), 10 μM
Answers are plain numbers, in %.

Example cases with answers are listed next.
OC(COC1CCCCC1)CN1C[C@H]2C[C@@H]1CN(Cc1ccccc1)C2 (stereo partly drawn) [Example 318]
48
O=C1c2ccccc2CCN1CCN1CC[C@H](Oc2ccc(F)cc2)C1 [Example 26]
70
COc1cccc(OC2CCN(CCN3CCCc4ccccc4C3=O)CC2)c1 [Example 205]
76
COc1cccc(CCCN2CCC(Oc3ccccc3)CC2)c1 [Example 225]
88

For each entry beneath this line, provide reported inhibition at 10 µM.
1. COCc1cccc(OC2CCN(CCN3CCc4ccccc4C3=O)CC2)c1 [Example 196]
2. c1ccc(CCN2CCC3(CCc4ccccc4O3)CC2)cc1 [Example 427]
3. O=C1c2ccccc2CCN1CCCN1CCC(Oc2cccnc2)CC1 [Example 220]
4. N#Cc1cccc(OC2CCN(CCN3CCc4ccccc4C3=O)CC2)c1 [Example 197]

Result:
1. 67
2. 81
3. 12
4. 47

Query: Request the reported inhibition at 10 µM associated with OC1(CN2CCC(Oc3ccc(F)cc3)CC2)COCc2ccccc21 (stereo not drawn) [Example 159]
Result: 77
